Tested on: RXF 393 renal
Test: NCI tumour cell line growth inhibition, 48 h
Hi, to clarify the labels: yes covers TGI from 30 µM upward, no covers anything below 30 µM.

{"columns": ["compound", "measured_on", "class"],
 "data": [
  ["C=C1C(=O)O[C@H]2[C@H]1[C@H](OC(=O)/C(C)=C\\C)C[C@]1(CO1)[C@@H]1[C@H](OC(C)=O)C=C(C)[C@]21O", "RXF 393 renal", "no"],
  ["CCOC(=O)N1c2ccccc2S(=O)(=O)c2ccccc21", "RXF 393 renal", "yes"],
  ["O=C(NCCN1CCOCC1)Nc1ccc(-c2cc3c(Nc4ccc(Oc5cccc(C(F)(F)F)c5)c(Cl)c4)ncnc3s2)cc1", "RXF 393 renal", "no"],
  ["C[C@H]1CCC/C=C/[C@@H]2C[C@H](O)C[C@H]2[C@H](O)[C@@H](S(=O)CCN)CC(=O)O1 (stereo partly specified)", "RXF 393 renal", "no"],
  ["COC(C/C(=C/CO[Si](C(C)C)(C(C)C)C(C)C)C(=O)Nc1ccccc1I)OC", "RXF 393 renal", "no"],
  ["COC(=O)[C@@H](Cc1c[nH]c2ccccc12)NC(=O)/C=C/c1ccccc1", "RXF 393 renal", "no"],
  ["COc1ccc(C2C(c3ccccc3)C(=O)N2c2cc(OC)c(OC)c(OC)c2)cc1I (stereo unspecified)", "RXF 393 renal", "yes"],
  ["C#CCOc1ccc2ncnc(Nc3ccc(NC(=O)CCl)cc3)c2c1", "RXF 393 renal", "no"],
  ["O=C1SC(c2ccc(Cl)cc2)(c2ccc(Cl)cc2)c2ccccc21", "RXF 393 renal", "yes"],
  ["O=C(/C=C/c1c(O)ccc2ccccc12)c1cccc2ccccc12", "RXF 393 renal", "yes"],
  ["C/C(=N\\NS(=O)(=O)c1ccc(C)cc1)C(CN(C)C)C(c1ccccc1)c1c(O)c2ccccc2oc1=O (stereo unspecified)", "RXF 393 renal", "yes"],
  ["O=C(CSCC(=O)N/N=C/c1cccc(OCc2ccccc2)c1)N/N=C/c1cccc(OCc2ccccc2)c1", "RXF 393 renal", "yes"],
  ["COc1cc2nc(-c3ccc(-n4cncc4-c4ccc(N)cc4)cc3)sc2c(OC)c1OC", "RXF 393 renal", "no"],
  ["COc1cc2ccc1-c1cc(ccc1O)CC1c3cc4c(cc3CCN1C)Oc1c(OC)cc3c(c1O4)C(C2)N(C)CC3 (stereo unspecified)", "RXF 393 renal", "no"],
  ["Cc1[nH]n(-c2nc3c(c(=O)[nH]2)CCC3)c(=O)c1CCO", "RXF 393 renal", "yes"],
  ["CO[C@@](c1ccccc1)(c1nc(C#N)c(N)o1)C(F)(F)F", "RXF 393 renal", "yes"],
  ["O=C(O)c1ccc(-c2ccc(C(=O)O)cc2I)c(I)c1", "RXF 393 renal", "yes"],
  ["Cc1c2ncccc2nc2[nH]c3ccc(OCCN(C)C)cc3c12", "RXF 393 renal", "no"],
  ["Nc1nc(Cl)cc(NCC2(CO)CCC2)n1", "RXF 393 renal", "yes"],
  ["O=C(CCC(=O)N/N=C/c1ccccc1O)N/N=C/c1ccccc1O", "RXF 393 renal", "yes"],
  ["COc1ccc2c(c1)N(C(C)=O)CN1C(=O)CCC21 (stereo unspecified)", "RXF 393 renal", "yes"],
  ["O=C(Nc1cccc(C(F)(F)F)c1)c1cccc(NC2=C(Cl)C(=O)N(Cc3ccccc3)C2=O)c1", "RXF 393 renal", "no"],
  ["COc1ccc2c(c1OC)-c1c(c3ccc([N+](=O)[O-])cc3c(=O)n1CCCN=[N+]=[N-])C2=O", "RXF 393 renal", "yes"],
  ["NC1=CC(C(=O)c2ccncc2)c2nc3ccccc3nc21 (stereo unspecified)", "RXF 393 renal", "yes"],
  ["CC[C@H](Nc1nc(N)nc(N)c1Cl)c1nc2cccc(NCc3ccc(C(=O)NO)cc3)c2c(=O)n1-c1ccccc1", "RXF 393 renal", "no"],
  ["NC(N)=N/N=C/c1cccc(Cl)c1Cl", "RXF 393 renal", "no"],
  ["CC(NC(=O)/C(C#N)=C/c1ccc2[nH]ccc2c1)c1ccccc1 (stereo unspecified)", "RXF 393 renal", "yes"],
  ["CC(C)CNc1nc(N)[nH]c(=O)c1NC=O", "RXF 393 renal", "yes"],
  ["Cc1c(C2Cc3ccccc3N2C(=O)/C=C\\C(=O)O)c2ccccc2n1C (stereo unspecified)", "RXF 393 renal", "yes"],
  ["O=C1OC(c2ccccc2)=N/C1=C\\c1c(O)cc(O)cc1O", "RXF 393 renal", "yes"],
  ["CC1=Nc2c([nH]c(=S)[nH]c2=O)NC(c2ccc(Cl)c(Cl)c2)C1 (stereo unspecified)", "RXF 393 renal", "yes"],
  ["COc1ccc(-n2c3c(c4cc(O)ccc42)C(=O)c2ccccc2C3=O)cc1", "RXF 393 renal", "no"]
]}

----------
System: UACC-62 melanoma
Test: NCI tumour cell line growth inhibition, 48 h
The entries below are paired with their reported GI50.

{"columns": ["compound", "GI50"],
 "data": [
  ["CCOC(=O)c1cc2cc(NC(=O)c3cc4cc([N+](=O)[O-])ccc4n3C)ccc2n1C", "12.3 µM"],
  ["Cc1ccccc1-n1c(/C=C\\c2ccccn2)nc2ccccc2c1=O", "14.2 µM"],
  ["COc1ccc2[nH]c(-c3cccc(N(C)C)c3)cc(=O)c2c1", "0.483 µM"],
  ["CCCC(=O)NC(c1ccc2c(c1)OCO2)c1ccc2cccnc2c1O (stereo not given)", "1.3 µM"],
  ["CS(=O)c1ccc(-c2nc(-c3ccc(F)cc3)c(-c3ccncc3)[nH]2)cc1 (stereo not given)", "9.09 µM"],
  ["CCOC(=O)CNC(=O)CCCn1c(=O)c2c3ccccc3n(C)c2n2nnc(-c3ccccc3)c12", "7.2 µM"],
  ["COc1ccc(NC(=O)Nc2ccc(Nc3nc(C)cc(Nc4ccc(C)cc4)n3)cc2)cc1", "1.41 µM"],
  ["N=C(N)c1ccc(-c2ccc(-c3ccc(Cl)cn3)s2)cc1", "1.84 µM"],
  ["C[C@@]1(c2ncncc2F)NC(=O)c2cc(-c3cn[nH]c3)ccc21", "18.8 µM"],
  ["CC(F)(F)c1cc(F)ccc1-c1sc2cc(O)ccc2c1Oc1ccc(/C=C/C(=O)O)cc1", "6.06 µM"]
]}

----------
Test system: SK-MEL-28 melanoma
Experiment: NCI tumour cell line growth inhibition, 48 h
Listed next: entries and their corresponding GI50.

{"columns": ["compound", "GI50"],
 "data": [
  ["COc1cc(-c2nc(SCC(=O)Nc3ccc(C(C)=O)cc3)[nH]c(=O)c2C#N)cc(OC)c1OC", "47.5 µM"],
  ["C#CCOc1ccc2ncnc(Nc3ccc(NC(=O)CCl)cc3)c2c1", "14.5 µM"],
  ["CC1CCC2C(C)C3C(CC4C5CC=C6CC(OC7OC(CO)C(O)C(OC8OC(CO)C(O)C(O)C8O)C7OC7OC(C)C(O)C(O)C7O)CCC6(C)C5CCC43C)N2C1 (centres undefined)", "> 2.5 µg/mL"],
  ["COc1cc(-c2nn(C(=O)NS(=O)(=O)c3ccc(C)cc3)cc2-c2ccncc2)ccc1Cl", "3.51 µM"],
  ["COc1cccc(Cn2cc3c(c2)-c2oncc2CC3)c1", "0.746 µM"],
  ["CN1CCN(Cc2ccc(NC(=O)c3[nH]ncc3Nc3ncnc4sccc34)cc2)CC1", "0.857 µM"],
  ["CCCCCC(=O)OCC(=O)O[C@@H]1C[C@]2(C(C)C)O[C@@]1(C)[C@@H]1CC[C@@H](C)[C@H]1[C@@H]2OC(=O)/C=C/c1ccccc1", "> 56.6 µM"],
  ["O=C(NCCN1CCOCC1)Nc1ccc(-c2cc3c(Nc4ccc(Oc5cccc(C(F)(F)F)c5)c(Cl)c4)ncnc3s2)cc1", "0.809 µM"],
  ["O=C(O)c1ccc(-c2ccc(C(=O)O)cc2I)c(I)c1", "> 100 µM"]
]}

----------
Test system: ACHN renal
Test: NCI tumour cell line growth inhibition, 48 h; in the data active means GI50 below about 0.43 µM; inactive means the rest
Labels: TRUE for active, FALSE for inactive

{"columns": ["compound", "class"],
 "data": [
  ["COC(=O)[C@@H](Cc1c[nH]c2ccccc12)NC(=O)/C=C/c1ccccc1", "FALSE"],
  ["CCCCN(CCCC)CC(C)(C)C(O)c1ccc(OC)c2ccccc12 (stereo not drawn)", "FALSE"],
  ["CCCC(=O)NC(c1ccc2c(c1)OCO2)c1ccc2cccnc2c1O (stereo not drawn)", "FALSE"],
  ["C[C@@H]1CC[C@H]2C(COC/C=C/COCC3=C(C(F)(F)F)O[C@@H]4O[C@@]5(C)CC[C@H]6[C@H](C)CC[C@@H]3[C@@]46OO5)=C(C(F)(F)F)O[C@@H]3O[C@@]4(C)CC[C@@H]1[C@]32OO4", "TRUE"],
  ["COC(=O)c1c2c(c(C)[n+]([O-])c1C)C(=O)C(NCc1cccc(OC)c1)=CC2=O", "FALSE"],
  ["O=C(O)c1ccc(-c2ccc(C(=O)O)cc2I)c(I)c1", "FALSE"],
  ["CC1CCC2C(C)C3C(CC4C5CC=C6CC(OC7OC(CO)C(O)C(OC8OC(CO)C(O)C(O)C8O)C7OC7OC(C)C(O)C(O)C7O)CCC6(C)C5CCC43C)N2C1 (stereo not drawn)", "FALSE"],
  ["CCOC(=O)c1cc2cc(NC(=O)c3cc4cc([N+](=O)[O-])ccc4n3C)ccc2n1C", "FALSE"]
]}
